- Test system: MCF-10A
- TEST PROTOCOL: AlamarBlue cytotoxicity assay, MCF-10A
- Assay type: cell-based, human
- SETTINGS: 72 h
PARAMETER: pIC50
Would you please state pIC50, meaning minus log10 of the concentration in mol/L, as a bare number?

-- ask Could you please provide reported pIC50 for C/C=C(\C)C(=O)O[C@@H]1[C@@H](O)[C@@H]2O[C@H]3[C@H](O[C@@H](CCCCC)CCCCCCC(=O)CCC(=O)OC[C@@H](O2)[C@H]1OC(=O)/C=C/c1ccc(OCc2cn(CCOCCOCCOCCNS(=O)(=O)c4ccc(-c5c6ccc(=[N+](CC)CC)cc-6oc6cc(N(CC)CC)ccc56)c(S(=O)(=O)[O-])c4)nn2)cc1)O[C@H](C)[C@H](OC(C)=O)[C@@H]3O ? Thanks!
-- reply 6.87

* * *

- TEST PROTOCOL: AlamarBlue cytotoxicity assay, MCF-10A
- Type: cell-based, human
- SETTINGS: human, 72 h
PARAMETER: IC50 (nM)
Please reply with the bare figure in nM and do not write the unit itself.

Recorded results for 3 compounds are shown here.
-- ask Query IC50 for C/C=C(\C)C(=O)O[C@H]1[C@H](OC(=O)/C=C/c2ccc(OCc3cn(CCOCCOCCOCCNC(=O)CCCC[C@@H]4SC[C@@H]5NC(=O)N[C@@H]54)nn3)cc2)[C@@H](O)[C@@H]2O[C@H]3[C@H](O[C@@H](CCCCC)CCCCCCC(=O)CCC(=O)OC[C@H]1O2)O[C@H](C)[C@H](OC(C)=O)[C@@H]3O [compound 5]
-- reply 21.7

-- ask Please indicate IC50 recorded for C#CCOc1ccc(/C=C/C(=O)O[C@@H]2[C@@H](O)[C@@H]3O[C@H]4[C@H](O[C@@H](CCCCC)CCCCCCC(=O)CCC(=O)OC[C@@H](O3)[C@H]2OC(=O)/C(C)=C/C)O[C@H](C)[C@H](OC(C)=O)[C@@H]4O)cc1 [compound 3]
-- reply 9.6

-- ask Identify IC50 associated with the compound C/C=C(\C)C(=O)O[C@@H]1[C@@H](O)[C@@H]2O[C@H]3[C@H](O[C@@H](CCCCC)CCCCCCC(=O)CCC(=O)OC[C@@H](O2)[C@H]1OC(=O)/C=C/c1ccc(OCc2cn(-c4cc5ccc(O)cc5oc4=O)nn2)cc1)O[C@H](C)[C@H](OC(C)=O)[C@@H]3O [compound 10]
-- reply 11.3

Now examine the next entry.
-- ask Could you please provide reported IC50 for C/C=C(\C)C(=O)O[C@@H]1[C@@H](O)[C@@H]2O[C@H]3[C@H](O[C@@H](CCCCC)CCCCCCC(=O)CCC(=O)OC[C@@H](O2)[C@H]1OC(=O)/C=C/c1ccc(OCc2cn(CCOCCOCCOCCNc4ccc([N+](=O)[O-])c5nonc45)nn2)cc1)O[C@H](C)[C@H](OC(C)=O)[C@@H]3O [compound 11] ? Thanks!
-- reply 2

* * *

Parameter: pIC50. Scope: all listed entries.
- Test system: MCF7
- TEST PROTOCOL: MTT cytotoxicity assay, MCF7
- Assay type: cell-based, human
- SETTINGS: Homo sapiens; MCF7, 72 h, MTT; read-out: Cytotoxicity (IC50)
# log scale: pIC50 equals minus log10 of the concentration in mol/L

# annotated cases, reported pIC50 shown
-- ask Determine its reported pIC50: C#CCOc1ccc(/C=C/C(=O)O[C@@H]2[C@@H](O)[C@@H]3O[C@H]4[C@H](O[C@@H](CCCCC)CCCCCCC(=O)CCC(=O)OC[C@@H](O3)[C@H]2OC(=O)/C(C)=C/C)O[C@H](C)[C@H](OC(C)=O)[C@@H]4O)cc1
-- reply 7.65

-- ask Query pIC50 for C/C=C(\C)C(=O)O[C@H]1[C@H](OC(=O)/C=C/c2ccc(OCc3cn(CCOCCOCCOCCNC(=O)CCCC[C@@H]4SC[C@@H]5NC(=O)N[C@@H]54)nn3)cc2)[C@@H](O)[C@@H]2O[C@H]3[C@H](O[C@@H](CCCCC)CCCCCCC(=O)CCC(=O)OC[C@H]1O2)O[C@H](C)[C@H](OC(C)=O)[C@@H]3O
-- reply 6.73

-- ask Answer with the recorded pIC50 for the compound listed here: C/C=C(\C)C(=O)O[C@@H]1[C@@H](O)[C@@H]2O[C@H]3[C@H](O[C@@H](CCCCC)CCCCCCC(=O)CCC(=O)OC[C@@H](O2)[C@H]1OC(=O)/C=C/c1ccc(OCc2cn(CCOCCOCCOCCNc4ccc([N+](=O)[O-])c5nonc45)nn2)cc1)O[C@H](C)[C@H](OC(C)=O)[C@@H]3O
-- reply 7.68

Turning now to a further record.
-- ask Give a short answer stating reported pIC50 for C/C=C(\C)C(=O)O[C@@H]1[C@@H](O)[C@@H]2O[C@H]3[C@H](O[C@@H](CCCCC)CCCCCCC(=O)CCC(=O)OC[C@@H](O2)[C@H]1OC(=O)/C=C/c1ccc(OCc2cn(-c4cc5ccc(O)cc5oc4=O)nn2)cc1)O[C@H](C)[C@H](OC(C)=O)[C@@H]3O .
-- reply 6.76

* * *

- Test system: MCF7
- TEST PROTOCOL: MTT cytotoxicity assay, MCF7
- Format: cell-based, human
- SETTINGS: MCF7, 72 h, MTT; read-out: Cytotoxicity (IC50)
PARAMETER: IC50 (nM)
Give just the number in nM; leave the unit off.

-- ask Output measured IC50 for this item: C/C=C(\C)C(=O)O[C@@H]1[C@@H](O)[C@@H]2O[C@H]3[C@H](O[C@@H](CCCCC)CCCCCCC(=O)CCC(=O)OC[C@@H](O2)[C@H]1OC(=O)/C=C/c1ccc(OCc2cn(CCOCCOCCOCCNS(=O)(=O)c4ccc(-c5c6ccc(=[N+](CC)CC)cc-6oc6cc(N(CC)CC)ccc56)c(S(=O)(=O)[O-])c4)nn2)cc1)O[C@H](C)[C@H](OC(C)=O)[C@@H]3O [compound 12]
-- reply 172

* * *

- TEST PROTOCOL: AlamarBlue cytotoxicity assay, MCF-10A
- Assay type: cell-based, human
- SETTINGS: human
PARAMETER: IC50 at 72 h (nM)
Give the value, in units of nM, as a plain number.

-- ask Input C/C=C(\C)C(=O)O[C@@H]1[C@@H](O)[C@@H]2O[C@H]3[C@H](O[C@@H](CCCCC)CCCCCCC(=O)CCC(=O)OC[C@@H](O2)[C@H]1OC(=O)/C=C/c1ccccc1)O[C@H](C)[C@H](OC(C)=O)[C@@H]3O , output reported IC50 at 72 h.
-- reply 5.3
